Subject Of Test: T1, cynomolgus monkey IL-21R expressed on cells (cynomolgus monkey, UniProt G7Q0S8 41-559)
T1 construct: whole, on cells
Assay Remarks: cell ELISA, CHO cells
The following binders are listed with their measured A450 (13 nM Ab) values.

Binder	A450 (13 nM Ab) [A450]
AbO (antibody, human IgG1, V domains shown, CDR3 graft, residue limits derived as for m29; also called VHP/VL16; VHPTM/VL16) VH: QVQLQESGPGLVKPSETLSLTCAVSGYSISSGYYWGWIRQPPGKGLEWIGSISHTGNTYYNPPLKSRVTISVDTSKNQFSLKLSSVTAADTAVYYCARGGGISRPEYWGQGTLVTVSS VL: SSELTQDPAVSVALGQTVRITCQGDSLRTYYASWYQQKPGQAPVLVIYGKHKRPSGIPDRFSGSSSGNTASLTITGAQAEDEADYYCVTRSAKGNPHVLFGGGTQLTVL	1.36
AbG (antibody, IgG1, V domains shown, As for AbA: IgG1/lambda, CDR3 graft, residue limits derived; also called VHP/VL18) VH: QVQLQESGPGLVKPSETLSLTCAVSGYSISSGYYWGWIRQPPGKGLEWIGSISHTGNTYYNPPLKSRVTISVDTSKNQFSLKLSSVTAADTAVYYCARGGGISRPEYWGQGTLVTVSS VL: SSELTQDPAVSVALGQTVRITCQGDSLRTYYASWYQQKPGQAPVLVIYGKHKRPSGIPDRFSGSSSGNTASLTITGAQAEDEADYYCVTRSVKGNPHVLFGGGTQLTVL	1.3
AbQ (antibody, human IgG1, V domains shown, CDR3 graft, residue limits derived as for m29; also called VH3/VL2; VH3DM/VL2) VH: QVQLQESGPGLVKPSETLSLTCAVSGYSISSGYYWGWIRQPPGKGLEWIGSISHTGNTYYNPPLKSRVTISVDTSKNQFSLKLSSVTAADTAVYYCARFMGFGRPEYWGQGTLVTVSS VL: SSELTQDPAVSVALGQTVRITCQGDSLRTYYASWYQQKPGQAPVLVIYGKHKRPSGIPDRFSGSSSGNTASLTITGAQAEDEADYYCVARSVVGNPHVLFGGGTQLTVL	1.31
